The measured values listed here are drawn from PubChem BioAssay AID504329.

inhibition reference
METHOD_DESCRIPTION: H1N1 influenza NS1A inhibitors, functional cell based assay (AID 504329)
EXPERIMENTAL_CONDITIONS: percent inhibition, at 12.5 µM, stronger effect = higher value
Hit rate of the full screen: of about 340,000 compounds, about 1,000 (0.29%) were called active. A selection follows. Potency and affinity values are given separately.
Supply the numeric figure in %, leaving out any unit text.

Solved entries:
>  <COMPOUND>
N#C/C(=C\C1=C(N2CCOCC2)C(=C\c2ccc(Cl)cc2)/CC1)C(=O)Nc1ccccc1F

>  <inhibition / %>
8.68

$$$$
>  <COMPOUND>
CCN(CC)c1ccc(N=Nc2nn(C)c(C)c2[N+](=O)[O-])cc1

>  <inhibition / %>
9.15

$$$$

query: Return inhibition (reported value) for this compound: CCCC(=O)NC(c1cccs1)c1cc(Cl)c2cccnc2c1O (stereo unspecified)
result: -9.38

query: Note inhibition for the compound shown: COc1cc(OC)c2ccc(=O)oc2c1C(CCN1CCCCC1)c1ccc(N(C)C)cc1 (stereo unspecified)
result: 9.04

query: Give recorded inhibition. CC(C)Cc1nnc(NC(=O)CCC(=O)NCc2ccccc2Cl)s1
result: -2.08

query: State, in one line, measured inhibition of CCN(CC)c1ccc(/C=C2\CCC(/C=C(/C#N)C(=O)Nc3ccccc3F)=C2N2CCOCC2)cc1
result: -9.82

query: For the compound O=C(CN(Cc1ccccc1Cl)C(=O)c1ccc(CN2CCOCC2)o1)NCc1ccccc1 , give its reported inhibition.
result: 1.95
